Molecular target: human cyclin B-CDK1 (Homo sapiens, UniProt P06493)
Sequence (P06493 whole entry): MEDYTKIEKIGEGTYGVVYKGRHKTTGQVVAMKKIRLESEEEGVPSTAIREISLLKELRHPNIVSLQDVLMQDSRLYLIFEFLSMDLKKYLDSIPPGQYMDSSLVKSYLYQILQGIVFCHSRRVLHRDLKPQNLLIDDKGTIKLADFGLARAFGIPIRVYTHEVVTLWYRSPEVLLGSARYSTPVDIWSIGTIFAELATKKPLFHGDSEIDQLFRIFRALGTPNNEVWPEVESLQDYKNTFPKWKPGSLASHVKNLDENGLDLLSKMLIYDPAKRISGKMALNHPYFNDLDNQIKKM
Sequence (P14635 whole entry partner): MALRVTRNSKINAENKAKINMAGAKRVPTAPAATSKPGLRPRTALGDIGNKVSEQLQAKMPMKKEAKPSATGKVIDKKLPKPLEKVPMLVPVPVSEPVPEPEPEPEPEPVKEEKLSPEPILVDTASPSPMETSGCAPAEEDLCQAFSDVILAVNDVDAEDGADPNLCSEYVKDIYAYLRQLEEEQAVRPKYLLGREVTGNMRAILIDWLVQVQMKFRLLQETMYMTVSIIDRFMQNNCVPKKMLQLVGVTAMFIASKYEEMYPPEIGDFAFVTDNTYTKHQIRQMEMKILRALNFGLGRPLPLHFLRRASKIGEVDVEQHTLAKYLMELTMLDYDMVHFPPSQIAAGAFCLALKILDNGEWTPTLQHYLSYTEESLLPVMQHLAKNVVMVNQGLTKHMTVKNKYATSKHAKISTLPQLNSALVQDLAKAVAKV
Entries whose IC50 is below 1000 nM take Met; entries at or above 1000 nM take Not met.

INSERT INTO results (compound, assigned_label) VALUES
  ('COc1cccc(C(=O)c2sc(Nc3ccc(N4CCC(N5CCCC5)CC4)cc3)nc2N)c1 [Example 27]', 'Not met'),
  ('Nc1nc(Nc2ccc(N3CCC(N4CCCC(O)C4)CC3)cc2)sc1C(=O)c1cccc(O)c1 (centres unmarked) [Example 81]', 'Not met'),
  ('N#Cc1cccc(C(=O)c2sc(Nc3ccc(N4CCC(N5CCCC(O)C5)CC4)cc3)nc2N)c1 (centres unmarked) [Example 80]', 'Not met'),
  ('N#Cc1cccc(C(=O)c2sc(Nc3ccc(N4CCC(N5CCOCC5)CC4)cc3)nc2N)c1 [Example 104]', 'Not met'),
  ('CN(C)C1CCN(c2ccc(Nc3nc(N)c(C(=O)c4cccc(F)c4)s3)cc2)CC1 [Example 41]', 'Met'),
  ('Nc1nc(Nc2ccc(N3CCC(N4CCOCC4)CC3)cc2)sc1C(=O)c1ccc2c(c1)OCO2 [Example 101]', 'Met'),
  ('Nc1nc(Nc2ccc(N3CCC(N4CCCCC4)CC3)cc2)sc1C(=O)c1cc(F)cc(F)c1 [Example 57]', 'Not met'),
  ('CN(C)C1CCN(c2ccc(Nc3nc(N)c(C(=O)c4ccc(F)c(F)c4)s3)cc2)CC1 [Example 84]', 'Not met');
